measuredOn: UniProt:Q15746
Sequence (Q15746 whole entry, looked up): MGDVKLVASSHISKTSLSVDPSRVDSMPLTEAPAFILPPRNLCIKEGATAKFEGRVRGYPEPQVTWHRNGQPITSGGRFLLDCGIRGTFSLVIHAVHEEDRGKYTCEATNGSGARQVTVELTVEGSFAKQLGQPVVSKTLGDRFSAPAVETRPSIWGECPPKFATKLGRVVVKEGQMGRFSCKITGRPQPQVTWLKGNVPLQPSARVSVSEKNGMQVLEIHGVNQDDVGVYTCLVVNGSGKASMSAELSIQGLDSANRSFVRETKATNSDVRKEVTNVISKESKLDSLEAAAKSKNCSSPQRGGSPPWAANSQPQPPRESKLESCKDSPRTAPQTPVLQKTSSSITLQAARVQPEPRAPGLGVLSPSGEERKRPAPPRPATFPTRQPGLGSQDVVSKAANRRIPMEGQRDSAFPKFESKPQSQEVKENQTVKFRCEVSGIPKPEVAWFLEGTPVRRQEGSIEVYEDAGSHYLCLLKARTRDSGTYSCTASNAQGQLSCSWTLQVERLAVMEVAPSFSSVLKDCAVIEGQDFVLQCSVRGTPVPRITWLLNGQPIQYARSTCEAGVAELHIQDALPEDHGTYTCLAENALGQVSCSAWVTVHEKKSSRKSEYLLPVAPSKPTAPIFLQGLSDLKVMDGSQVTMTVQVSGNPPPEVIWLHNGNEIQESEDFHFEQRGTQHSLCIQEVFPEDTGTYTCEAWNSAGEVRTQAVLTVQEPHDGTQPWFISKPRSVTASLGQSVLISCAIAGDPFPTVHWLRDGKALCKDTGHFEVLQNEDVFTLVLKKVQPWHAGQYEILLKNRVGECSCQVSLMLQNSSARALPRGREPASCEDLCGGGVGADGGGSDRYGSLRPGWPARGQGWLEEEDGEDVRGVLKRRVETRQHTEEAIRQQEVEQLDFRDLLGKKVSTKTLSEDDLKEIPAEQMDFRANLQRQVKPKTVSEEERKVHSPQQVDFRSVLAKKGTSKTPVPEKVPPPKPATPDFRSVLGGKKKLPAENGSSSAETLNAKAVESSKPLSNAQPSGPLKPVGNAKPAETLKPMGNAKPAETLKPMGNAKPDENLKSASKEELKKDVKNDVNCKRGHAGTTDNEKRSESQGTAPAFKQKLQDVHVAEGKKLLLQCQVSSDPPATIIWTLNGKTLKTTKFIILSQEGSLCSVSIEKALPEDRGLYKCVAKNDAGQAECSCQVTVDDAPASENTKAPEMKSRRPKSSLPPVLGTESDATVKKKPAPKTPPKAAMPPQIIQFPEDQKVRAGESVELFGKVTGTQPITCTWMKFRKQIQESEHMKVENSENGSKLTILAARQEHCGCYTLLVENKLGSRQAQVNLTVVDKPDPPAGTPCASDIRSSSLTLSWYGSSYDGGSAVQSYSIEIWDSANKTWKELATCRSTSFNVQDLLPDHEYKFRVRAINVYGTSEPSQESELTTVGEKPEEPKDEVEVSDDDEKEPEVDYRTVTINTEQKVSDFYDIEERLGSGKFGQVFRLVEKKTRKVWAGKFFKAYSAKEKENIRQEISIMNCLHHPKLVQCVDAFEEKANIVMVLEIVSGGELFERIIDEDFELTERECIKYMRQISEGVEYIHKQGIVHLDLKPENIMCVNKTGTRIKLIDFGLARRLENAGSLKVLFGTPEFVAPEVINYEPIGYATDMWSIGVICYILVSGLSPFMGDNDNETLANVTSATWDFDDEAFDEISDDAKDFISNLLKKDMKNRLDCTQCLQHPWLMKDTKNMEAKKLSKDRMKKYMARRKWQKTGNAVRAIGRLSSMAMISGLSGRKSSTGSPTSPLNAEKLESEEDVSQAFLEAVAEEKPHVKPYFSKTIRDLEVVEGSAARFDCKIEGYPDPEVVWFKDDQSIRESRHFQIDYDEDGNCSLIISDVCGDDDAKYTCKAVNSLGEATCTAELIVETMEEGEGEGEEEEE
testDetails: KINOMEscan competition binding
condition: compound 10.0 µM
// NB: equality with 90% counts as Not fulfilled; only kinase still bound, per cent of control strictly below is Fulfilled

Problem: Is the reported kinase still bound, per cent of control for CC(=O)c1c(C)c2cnc(Nc3ccc(N4CCNCC4)cn3)nc2n(C2CCCC2)c1=O strictly below 90%?
Result: Fulfilled

Problem: Is the reported kinase still bound, per cent of control for CCCS(=O)(=O)Nc1ccc(F)c(C(=O)c2c[nH]c3ncc(Cl)cc23)c1F strictly below 90%?
Result: Fulfilled

Problem: Is the reported kinase still bound, per cent of control for Cc1cn(-c2cc(C(=O)Nc3ccc(C)c(NC(=O)c4ccno4)c3)cc(C(F)(F)F)c2)cn1 strictly below 90%?
Result: Not fulfilled

###

measuredOn: UniProtKB O15111
Sequence (O15111 whole entry, looked up): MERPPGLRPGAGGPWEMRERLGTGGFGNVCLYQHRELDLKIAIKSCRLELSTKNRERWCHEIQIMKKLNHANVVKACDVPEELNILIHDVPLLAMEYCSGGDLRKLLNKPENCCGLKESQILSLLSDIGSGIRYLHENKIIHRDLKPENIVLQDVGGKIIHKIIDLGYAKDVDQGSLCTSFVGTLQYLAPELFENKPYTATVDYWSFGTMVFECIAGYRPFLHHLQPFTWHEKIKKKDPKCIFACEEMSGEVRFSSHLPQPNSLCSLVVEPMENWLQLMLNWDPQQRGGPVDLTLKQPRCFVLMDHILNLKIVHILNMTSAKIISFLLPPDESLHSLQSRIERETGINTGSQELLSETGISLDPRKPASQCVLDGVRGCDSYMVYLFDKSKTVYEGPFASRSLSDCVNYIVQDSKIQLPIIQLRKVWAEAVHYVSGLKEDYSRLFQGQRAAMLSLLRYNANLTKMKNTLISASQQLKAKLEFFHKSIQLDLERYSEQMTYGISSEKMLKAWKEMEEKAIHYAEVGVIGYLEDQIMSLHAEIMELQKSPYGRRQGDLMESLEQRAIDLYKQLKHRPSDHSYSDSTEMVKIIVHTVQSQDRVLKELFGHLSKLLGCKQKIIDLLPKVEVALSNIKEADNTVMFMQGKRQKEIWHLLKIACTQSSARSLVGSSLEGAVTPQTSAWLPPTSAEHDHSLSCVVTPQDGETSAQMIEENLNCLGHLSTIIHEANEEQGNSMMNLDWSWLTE
testDetails: KINOMEscan competition binding
condition: compound 10.0 µM
Kindly state kinase still bound, per cent of control for each of the entries shown.
Enter your answer as a number in %; do not include the unit.

CCOc1cc(N2CCC(O)CC2)ccc1Nc1ncc2c(n1)N(C)c1ccccc1C(=O)N2C yielded kinase still bound, per cent of control of 100

Cc1cn(-c2cc(C(=O)Nc3ccc(C)c(NC(=O)c4ccno4)c3)cc(C(F)(F)F)c2)cn1 yielded kinase still bound, per cent of control of 100

CC(=O)c1c(C)c2cnc(Nc3ccc(N4CCNCC4)cn3)nc2n(C2CCCC2)c1=O yielded kinase still bound, per cent of control of 83

CNC(=O)Nc1ccc(-c2nc(N3CC4CCC(C3)O4)c3cnn(C4CCC5(CC4)OCCO5)c3n2)cc1 yielded kinase still bound, per cent of control of 100

CCc1nc(-c2cccc(C)c2)c(-c2ccnc(NC(=O)c3ccccc3)c2)s1 yielded kinase still bound, per cent of control of 100

N#C/C(=C1/Nc2ccccc2S1)c1ccnc(NCCc2cccnc2)n1 yielded kinase still bound, per cent of control of 42

O=c1[nH]c2ccccc2n1C1CCN(Cc2ccc(-c3nc4cc5[nH]cnc5cc4nc3-c3ccccc3)cc2)CC1 yielded kinase still bound, per cent of control of 75

N#Cc1cc(-c2ccnc(Nc3ccc(-n4cnc(-c5cccnc5)n4)cc3)n2)cc(N2CCOCC2)c1 yielded kinase still bound, per cent of control of 55

###

measuredOn: RPS6KA5 KD2 (human) (UniProt O75582)
Sequence (O75582 whole entry, looked up): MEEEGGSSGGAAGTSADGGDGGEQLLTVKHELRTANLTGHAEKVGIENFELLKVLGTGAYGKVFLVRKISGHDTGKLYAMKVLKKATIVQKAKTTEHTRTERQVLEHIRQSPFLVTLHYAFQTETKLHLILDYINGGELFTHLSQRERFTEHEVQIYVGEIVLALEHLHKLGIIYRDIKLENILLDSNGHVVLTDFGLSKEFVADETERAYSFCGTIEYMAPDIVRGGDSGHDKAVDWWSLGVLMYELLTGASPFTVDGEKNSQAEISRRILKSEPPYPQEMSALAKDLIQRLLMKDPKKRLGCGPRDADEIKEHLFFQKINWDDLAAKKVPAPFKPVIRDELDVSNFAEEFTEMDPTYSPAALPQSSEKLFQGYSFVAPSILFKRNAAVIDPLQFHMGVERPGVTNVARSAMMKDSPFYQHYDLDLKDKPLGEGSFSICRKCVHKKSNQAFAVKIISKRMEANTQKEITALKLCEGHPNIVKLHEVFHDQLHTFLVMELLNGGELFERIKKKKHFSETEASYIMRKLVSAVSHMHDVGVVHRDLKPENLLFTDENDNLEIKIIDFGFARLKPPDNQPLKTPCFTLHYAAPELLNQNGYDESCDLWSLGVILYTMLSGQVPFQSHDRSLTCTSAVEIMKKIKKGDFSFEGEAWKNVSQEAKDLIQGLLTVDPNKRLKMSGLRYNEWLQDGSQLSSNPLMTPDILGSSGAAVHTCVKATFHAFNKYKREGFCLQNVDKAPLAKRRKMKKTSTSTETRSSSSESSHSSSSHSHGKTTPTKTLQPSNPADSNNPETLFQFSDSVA
testDetails: KINOMEscan competition binding
condition: compound 10.0 µM
measurementName: kinase still bound, per cent of control (%)
Enter your answer as a number in %; do not include the unit.

CC1=C(C(=O)Nc2cc3cn[nH]c3cc2F)C(c2ccc(C(F)(F)F)cc2)CC(=O)N1 (stereo not given) yielded kinase still bound, per cent of control of 87

COc1ccc(N(C(=O)Oc2cc(C(=O)Nc3cccc(C(F)(F)F)c3)ccc2C)c2ccnc(Nc3ccc(N4CCN(C)CC4)cc3)n2)c(OC)c1 yielded kinase still bound, per cent of control of 100

CNC(=O)Nc1ccc(-c2nc(N3CC4CCC(C3)O4)c3cnn(C4CCC5(CC4)OCCO5)c3n2)cc1 yielded kinase still bound, per cent of control of 90

COc1cc2ncnc(Nc3cccc(Cl)c3)c2cc1OC yielded kinase still bound, per cent of control of 67

Cc1cn(-c2cc(C(=O)Nc3ccc(C)c(NC(=O)c4ccno4)c3)cc(C(F)(F)F)c2)cn1 yielded kinase still bound, per cent of control of 100
